Data provenance: patent US12180207B2

Assay system phosphorylated FGFR3 (SEQ ID NO: 5, amino acids 449 to 759) (Homo sapiens (Human)); read-out recorded as IC50.
Answers are plain numbers, in nM.

The examples below pair each entry with its known result.
[
  {
    "Molecule": "C=CC(=O)N1CC(CN2CCC(n3ncc(-c4cc(OC)c5c(Cl)cnn5c4)c3C)CC2)(OC)C1",
    "IC50 / nM": 8
  },
  {
    "Molecule": "COc1cc(-c2cnn(C3CCN(C(=O)C4(F)CN(C(=O)/C=C/C(F)(F)F)C4)CC3)c2C)cn2ncc(C#N)c12",
    "IC50 / nM": 10
  },
  {
    "Molecule": "C=CC(=O)N1CC[C@H](C(=O)N2CCC(n3cc(-c4cc(OC)c5c(C#N)cnn5c4)cn3)CC2)C1",
    "IC50 / nM": 17
  }
]

Parameter requested: IC50. Apply to each item below.
1. C=CC(=O)N1CCC(C(=O)N2CCN(c3ccc(-c4cc(OC)c5c(C#N)cnn5c4)cn3)CC2)CC1
2. C=CC(=O)N1CC(C(=O)N2CCN(c3ccc(-c4cc(OC)c5c(C#N)cnn5c4)nn3)CC2)C1

1. 8
2. 11

###

Test target: recombinant human FGFR3 (amino acids R397-T806) (Homo sapiens (Human), UniProt P22607)
Sequence (P22607 397-806): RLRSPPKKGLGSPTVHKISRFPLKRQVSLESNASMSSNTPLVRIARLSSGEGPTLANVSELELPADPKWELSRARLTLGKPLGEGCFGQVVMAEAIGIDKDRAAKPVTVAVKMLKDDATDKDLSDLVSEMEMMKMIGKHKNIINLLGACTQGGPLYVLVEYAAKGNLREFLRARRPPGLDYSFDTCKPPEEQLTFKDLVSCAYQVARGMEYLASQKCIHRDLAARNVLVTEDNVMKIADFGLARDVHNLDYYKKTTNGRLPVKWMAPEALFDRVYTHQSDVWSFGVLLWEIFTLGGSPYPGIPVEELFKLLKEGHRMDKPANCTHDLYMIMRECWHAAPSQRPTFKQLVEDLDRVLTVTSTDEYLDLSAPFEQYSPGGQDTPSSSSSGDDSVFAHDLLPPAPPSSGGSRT
Measurement description: FGFR3 enzyme activity assay (LanthaScreen TR-FRET)
Condition parameters: 25 μM ATP, 10 min incubation at 22° C., average of multiple determinations if made, read-out: FGFR3 Enz FRET IC50
For each of the molecules below, state its pIC50.
Numbers only, as −log10 of the molar value.

The examples below pair each entry with its known result.
[
  {
    "Molecule": "C=CC(=O)N[C@H]1C[C@H](C(=O)N2CC[C@@H](n3cc(-c4cc(OC)c5c(C#N)cnn5c4)cn3)C2)C1 [Example 60]",
    "pIC50": 8.15
  },
  {
    "Molecule": "C=CC(=O)N1CC(C(=O)N2CCC(n3cc(-c4cc(OCC(C)C)c5c(C#N)cnn5c4)cn3)CC2)C1 [Example 128]",
    "pIC50": 8.52
  },
  {
    "Molecule": "C=CC(=O)N1CC[C@@H](C(=O)N2CCC(n3ncc(-c4cc(OC)c5c(C#N)cnn5c4)c3C)CC2)C1 [Example 83]",
    "pIC50": 8.15
  },
  {
    "Molecule": "C=CC(=O)N1CC(CC)(C(=O)N2CCC(n3cc(-c4cc(OC)c5c(C#N)cnn5c4)cn3)CC2)C1 [Example 40]",
    "pIC50": 8.70
  },
  {
    "Molecule": "COc1cc(-c2cnn(C3CCN(C(=O)C4(F)CN(C(=O)/C=C/CN(C)C)C4)CC3)c2C)cn2ncc(C#N)c12 [Example 153]",
    "pIC50": 8.30
  },
  {
    "Molecule": "C=CC(=O)N[C@H]1C[C@@H](C(=O)N2CC(n3cc(-c4cc(OC)c5c(C#N)cnn5c4)cn3)C2)C1 [Example 80]",
    "pIC50": 8.15
  }
]

Parameter requested: pIC50. Apply to each item below.
1. C=CC(=O)N(C)c1ccc(C(=O)N2CCC(n3cc(-c4cc(OC)c5c(C#N)cnn5c4)cn3)CC2)cc1 [Example 178]
2. C=CC(=O)N1CC(C(=O)N2CCC(n3cc(-c4cc(OC5CCC5)c5c(C#N)cnn5c4)cn3)CC2)C1 [Example 125]
3. C=CC(=O)N[C@H]1C[C@@H](C(=O)N2CC[C@@H](n3cc(-c4cc(OC)c5c(C#N)cnn5c4)cn3)C2)C1 [Example 61]
4. C=CC(=O)N[C@H]1C[C@@H](C(=O)N2CCC(n3cc(-c4cc(OC)c5c(C#N)cnn5c4)cn3)CC2)C1 [Example 44]
5. C=CS(=O)(=O)Nc1cccc(C(=O)N2CCC(n3cc(-c4cc(OC)c5c(C#N)cnn5c4)cn3)CC2)c1 [Example 188]

1: 7.92; 2: 8.52; 3: 8.30; 4: 8.70; 5: 8.52

Parameter requested: pIC50. Apply to each item below.
1. C=CC(=O)N1CC(C(=O)N2CC[C@@H](n3cc(-c4cc(OC)c5c(C#N)cnn5c4)cn3)C2)C1 [Example 59]
2. COc1cc(-c2nnn(C3CCN(C(=O)C4(F)CN(C(=O)/C=C/CN(C)C)C4)CC3)c2C)cn2ncc(C#N)c12 [Example 164]
3. COc1cc(-c2cnn(C3CCN(C(=O)C4CN(C(=O)/C=C/CN(C)C)C4)CC3)c2C)cn2ncc(C#N)c12 [Example 152]
4. C=CC(=O)Nc1ccc(C(=O)N2CC[C@H](n3cc(-c4cc(OC)c5c(C#N)cnn5c4)cn3)C2)cc1 [Example 66]

7.80
8.10
7.80
8.15

Parameter requested: pIC50. Apply to each item below.
1. COc1cc(-c2cnn(C3CCN(C(=O)C4(C)CN(C(=O)/C=C/CN(C)C)C4)CC3)c2C)cn2ncc(C#N)c12 [Example 157]
2. COc1cc(-c2cnn(C3CCN(C(=O)C4CN(C(=O)/C=C/CN5CCCCC5)C4)CC3)c2)cn2ncc(C#N)c12 [Example 145]
3. COc1cc(-c2cnn(C3CCN(C(=O)C4CN(C(=O)C5=CCC5)C4)CC3)c2)cn2ncc(C#N)c12 [Example 137]
4. C=CC(=O)N1CC(F)(C(=O)N2CCC(n3ncc(-c4cc(OC)c5c(C#N)cnn5c4)c3CC)CC2)C1 [Example 96]

7.74
8.52
8.30
6.54

Parameter requested: pIC50. Apply to each item below.
1. COc1cc(-c2nn(C3CCN(C(=O)C4(F)CN(C(=O)/C=C/CN(C)C)C4)CC3)nc2C)cn2ncc(C#N)c12 [Example 163]
2. C=CC(=O)N1CC(CN2CC(n3ncc(-c4cc(OC)c5c(C#N)cnn5c4)c3C)C2)C1 [Example 92]

6.64
7.41

###

Test target: FGFR3 (SEQ ID NO: 5, amino acids 449-759) (Homo sapiens (Human))
Sequence (P22607 449-759): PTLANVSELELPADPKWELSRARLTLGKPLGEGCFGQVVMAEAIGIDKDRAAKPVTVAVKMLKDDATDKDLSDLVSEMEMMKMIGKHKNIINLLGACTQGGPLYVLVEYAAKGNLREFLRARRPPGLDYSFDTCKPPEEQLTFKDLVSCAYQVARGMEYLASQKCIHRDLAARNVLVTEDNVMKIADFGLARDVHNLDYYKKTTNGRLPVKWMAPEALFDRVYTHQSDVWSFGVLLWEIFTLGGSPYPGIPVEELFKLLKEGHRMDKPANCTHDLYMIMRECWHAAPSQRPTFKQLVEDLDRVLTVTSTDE
Measurement description: LC/MS FGFR3 kobs assay (covalent protein modification)
Assay type: binding
Condition parameters: 500 nM FGFR3, 3 μM compound
Measure: FGFR3 Enz kobs (min⁻¹)
Numbers only, in min⁻¹.

The examples below pair each entry with its known result.
[
  {
    "Molecule": "C=CS(=O)(=O)N1CCC2(CC1)CC(C(=O)N1CCC(n3cc(-c4cc(OC)c5c(C#N)cnn5c4)cn3)CC1)C2",
    "Test target": "FGFR3 (SEQ ID NO: 5, amino acids 449-759) (Homo sapiens (Human))",
    "Unit label": "min⁻¹",
    "FGFR3 Enz kobs": 0.02572
  },
  {
    "Molecule": "C=CC(=O)N1CC(C)(C(=O)N2CCC(n3ncc(-c4cc(OC)c5c(C#N)cnn5c4)c3C)CC2)C1",
    "Test target": "FGFR3 (SEQ ID NO: 5, amino acids 449-759) (Homo sapiens (Human))",
    "Unit label": "min⁻¹",
    "FGFR3 Enz kobs": 0.02116
  },
  {
    "Molecule": "COc1cc(-c2cnn(C3CCN(C(=O)C4(OC)CN(C(=O)/C=C/CN(C)C)C4)CC3)c2C)cn2ncc(C#N)c12",
    "Test target": "FGFR3 (SEQ ID NO: 5, amino acids 449-759) (Homo sapiens (Human))",
    "Unit label": "min⁻¹",
    "FGFR3 Enz kobs": 0.1008
  },
  {
    "Molecule": "C=CC(=O)N[C@H]1C[C@@H](C(=O)N2CC(n3cc(-c4cc(OC)c5c(C#N)cnn5c4)cn3)C2)C1",
    "Test target": "FGFR3 (SEQ ID NO: 5, amino acids 449-759) (Homo sapiens (Human))",
    "Unit label": "min⁻¹",
    "FGFR3 Enz kobs": 0.00111
  }
]

Below: the item to evaluate.
Please report the measured FGFR3 Enz kobs for COc1cc(-c2cnn(C3CCN(C(=O)C4(C)CN(C(=O)/C=C/CN(C)C)C4)CC3)c2C)cn2ncc(C#N)c12 0.03267

###

For each of the compounds below, state its pIC50.
Test target: dephosphorylated FGFR2 (Homo sapiens (Human))
Sequence (P21802 22-821): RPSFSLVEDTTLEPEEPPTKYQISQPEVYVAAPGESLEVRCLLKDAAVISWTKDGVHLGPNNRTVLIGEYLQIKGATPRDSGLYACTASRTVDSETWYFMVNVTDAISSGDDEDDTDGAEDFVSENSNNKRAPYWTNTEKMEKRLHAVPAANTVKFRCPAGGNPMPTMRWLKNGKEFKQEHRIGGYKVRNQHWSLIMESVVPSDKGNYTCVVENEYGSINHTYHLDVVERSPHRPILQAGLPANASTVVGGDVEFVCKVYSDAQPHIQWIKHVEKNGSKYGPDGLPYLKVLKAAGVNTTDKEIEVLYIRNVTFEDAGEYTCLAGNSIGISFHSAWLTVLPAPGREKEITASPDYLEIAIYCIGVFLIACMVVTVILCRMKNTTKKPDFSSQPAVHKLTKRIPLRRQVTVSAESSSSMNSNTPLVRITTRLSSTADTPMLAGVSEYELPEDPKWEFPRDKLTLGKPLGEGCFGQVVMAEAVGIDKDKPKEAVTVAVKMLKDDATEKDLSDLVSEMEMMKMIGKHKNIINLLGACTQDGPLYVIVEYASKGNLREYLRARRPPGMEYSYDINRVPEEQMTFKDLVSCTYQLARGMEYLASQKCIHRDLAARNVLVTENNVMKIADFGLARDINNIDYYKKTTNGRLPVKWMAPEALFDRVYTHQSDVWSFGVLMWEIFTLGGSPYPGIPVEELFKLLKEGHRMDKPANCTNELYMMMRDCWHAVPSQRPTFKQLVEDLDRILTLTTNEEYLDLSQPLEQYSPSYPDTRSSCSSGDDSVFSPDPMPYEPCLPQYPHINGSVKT
Give bare numbers, as −log10 of the molar value.

The examples below pair each entry with its known result.
[
  {
    "Molecule": "COc1cc(-c2cnn(C3CCN(CC4(OC)CN(C(=O)/C=C/CN(C)C)C4)CC3)c2C)cn2ncc(Cl)c12",
    "pIC50": 7.35
  },
  {
    "Molecule": "C=CC(=O)N1CC(C(=O)N2CC3CC(C2)N3c2ccc(-c3cc(OC)c4c(C#N)cnn4c3)cn2)C1",
    "pIC50": 6.65
  },
  {
    "Molecule": "C=CC(=O)N1CC(C(=O)N2CCC3(CC2)CN(c2ccc(-c4cc(OC)c5c(C#N)cnn5c4)cn2)C3)C1",
    "pIC50": 7.66
  },
  {
    "Molecule": "C=CC(=O)N1CC(CN2CCC(n3ncc(-c4cc(OC)c5c(Cl)cnn5c4)c3C)CC2)C1",
    "pIC50": 7.25
  }
]

Below: the item to evaluate.
Please report the measured pIC50 for COc1cc(-c2c(C)nn(C3CCN(C(=O)C4(F)CN(C(=O)/C=C/CN(C)C)C4)CC3)c2C)cn2ncc(C#N)c12 7.36
